Data credit: paper PMC12298822

- Protocol Notes: Pharmacokinetic study after a single oral 100 mg sitagliptin tablet in healthy Korean male subjects (LC-MS/MS of plasma)
- Format: in vivo, human
- Stated Conditions: human, single oral 100 mg tablet, fasting, n = 8, plasma, mean

Smiles Str | Cmax / ng/mL
N[C@@H](CC(=O)N1CCn2c(nnc2C(F)(F)F)C1)Cc1cc(F)c(F)cc1F | 373

* * *

- Protocol Notes: Pharmacokinetic study after a single oral 100 mg sitagliptin tablet in healthy Korean male subjects (LC-MS/MS of plasma)
- Type: in vivo, human
- Stated Conditions: human, plasma, single oral 100 mg tablet, fasting, n = 8, mean

Smiles Str | Unit Abbreviation | half-life
N[C@@H](CC(=O)N1CCn2c(nnc2C(F)(F)F)C1)Cc1cc(F)c(F)cc1F | h | 8.47

* * *

- Protocol Notes: Pharmacokinetic study after a single oral 100 mg sitagliptin tablet in healthy Korean male subjects (LC-MS/MS of plasma)
- Assay type: in vivo, human
- Stated Conditions: human, single oral 100 mg tablet, fasting, n = 8, plasma, mean

Molecule | Tmax [h]
N[C@@H](CC(=O)N1CCn2c(nnc2C(F)(F)F)C1)Cc1cc(F)c(F)cc1F [Sitagliptin] | 2.06
